molecules and their reported log10(IC50)
molecular target: recombinant eIF4E (Homo sapiens (Human)); experiment: Fluorescence polarization competition assay for eIF4E binding potency; details: inhibition of eIF4E/EDA-m7GDP-ATTO-550 binding by 50%; Table 4B calculated values; read-out: IC50
recorded-metric: log10(IC50) (log10 of the value in nM)

>>> result("Cc1cc(C)nc(-c2c(C(F)(F)F)cc3nc(C)n(CCOc4ccc(Cl)cc4-c4cc(C)nc5c(C(=O)O)csc45)c(=O)c3c2C#N)n1")
2.07
>>> result("Cc1nc2cnc(N(C)C3CC4(C3)CN(C(C)(C)CF)C4)c(C#N)c2c(=O)n1CC#Cc1ccc(Cl)cc1-c1ccnc2c(C(=O)O)csc12")
0.76
>>> result("Cc1cc(-c2cc(Cl)ccc2OCCn2c(C)nc3cc(C(F)(F)F)c(N4CCN(C)CC4)c(C#N)c3c2=O)cc(C)n1")
1.47
>>> result("Cc1cc(-c2cc(Cl)ccc2OCCn2c(C)nc3cc(C(F)(F)F)c(-c4cnsc4)c(C#N)c3c2=O)c2scc(C(=O)O)c2n1")
1.51
>>> result("Cc1cc(-c2cc(Cl)ccc2OCCn2c(C)nc3cc4c(c(C#N)c3c2=O)CCNC4)c2scc(C(=O)O)c2n1")
1.02
>>> result("Cc1nc2c(C#N)c(C(F)(F)F)cc(C#N)c2c(=O)n1CCOc1ccc(Cl)cc1-c1ccnc2c(C(=O)O)csc12")
1.96

* * *

Quick reference: IC50 of the listed items.
biological target: recombinant eIF4E (Homo sapiens (Human), UniProt P06730); assay: Fluorescence polarization competition assay for eIF4E binding potency; conditions: inhibition of eIF4E/EDA-m7GDP-ATTO-550 binding by 50%; Table 4B calculated values; read-out: IC50
Sequence (P06730 whole entry): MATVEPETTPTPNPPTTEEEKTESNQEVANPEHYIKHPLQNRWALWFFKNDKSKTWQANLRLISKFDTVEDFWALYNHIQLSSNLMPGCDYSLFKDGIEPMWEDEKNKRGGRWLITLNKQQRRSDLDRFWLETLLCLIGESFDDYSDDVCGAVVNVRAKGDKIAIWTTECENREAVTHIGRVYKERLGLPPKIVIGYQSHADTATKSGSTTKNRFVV
recorded-metric: IC50 (nM)

>>> result("Cc1nc2cc(C(F)(F)F)cc(C#N)c2c(=O)n1CCOc1ccc(Cl)cc1-c1cc(Cl)nc2c(C(=O)O)csc12")
30.8
>>> result("Cc1cc2c(=O)n(CCOc3ccc(Cl)cc3-c3cccc(C(=O)O)c3)cnc2cn1")
279
>>> result("Cc1nc2cnc(O)c(C#N)c2c(=O)n1CC#Cc1ccc(Cl)cc1-c1ccnc2c(C(=O)O)csc12")
13.7
>>> result("Cc1cc(-c2cc(Cl)ccc2OCCn2c(C)nc3cc(C(F)(F)F)c(Cc4ccccn4)nc3c2=O)c2scc(C(=O)O)c2n1")
1.75
>>> result("Cc1nc2ccc(C(F)F)c(C#N)c2c(=O)n1CCOc1ccc(Cl)cc1-c1ccnc2c(C(=O)O)csc12")
8.83
>>> result("Cc1cc(-c2cc(Cl)ccc2OCCn2c(C)nc3cc(C(F)(F)F)c(N4CCN(CC(F)F)CC4)c(C#N)c3c2=O)c2scc(C(=O)O)c2n1")
7.45
>>> result("Cc1cc(-c2cc(Cl)ccc2OCCn2c(C)nc3c(F)c(C(F)(F)F)cc(C#N)c3c2=O)c2scc(C(=O)O)c2n1")
4.45

* * *

molecular target: recombinant eIF4E (Homo sapiens (Human)); assay: Fluorescence polarization competition assay for eIF4E binding potency; conditions: inhibition of eIF4E/EDA-m7GDP-ATTO-550 binding by 50%; Table 4B calculated values; read-out: IC50
Reported IC50 is given for each of the following molecules.
recorded-metric: IC50 (nM)

>>> result("Cc1nc2cnc(N3CC4(C3)CN(C3CC3)C4)c(C#N)c2c(=O)n1CC#Cc1ccc(Cl)cc1-c1ccnc2c(C(=O)O)csc12 [compound 822]")
10.7
>>> result("Cc1cc(-c2cc(Cl)ccc2OCCn2c(C)nc3cc(Cl)c(N4C[C@@H](C)N(C)[C@@H](C)C4)c(C#N)c3c2=O)c2sc(C)c(C(=O)O)c2n1 [1090a]")
38.3
>>> result("Cc1cc(-c2cc(Cl)ccc2OCCn2c(C)nc3cnc(-c4cc(F)cnc4C)c(C#N)c3c2=O)c2scc(C(=O)O)c2n1 [compound 1051]")
5.02
>>> result("COC(=O)c1csc2c(-c3cc(Cl)ccc3C#CCn3c(C)nc4cnc(N5CCN(CCOC(F)(F)F)CC5)c(C#N)c4c3=O)ccnc12 [compound 1104]")
631
>>> result("Cc1nc2cc(C#N)cc(C#N)c2c(=O)n1C/C=C/c1ccc(Cl)cc1-c1ccnc2c(C(=O)O)csc12 [compound 286]")
183
>>> result("Cc1nc2cnccc2c(=O)n1CCOc1ccc(Cl)cc1-c1cccc(C(=O)O)c1 [compound 1]")
281
>>> result("Cc1cc(-c2cc(Cl)ccc2OCCn2c(C)nc3cnc(C#N)cc3c2=O)c2scc(C(=O)O)c2n1 [compound 596]")
37.7
>>> result("Cc1cc(-c2cc(Cl)ccc2OCCn2c(C)nc3c(C)nc(-c4cccc(C(F)(F)F)c4)c(C#N)c3c2=O)c2scc(C(=O)O)c2n1 [compound 925]")
43.1
>>> result("Cc1cc(-c2cc(Cl)ccc2OCCn2c(C)nc3cc(C(F)(F)F)c(C4CCCN4C)c(C#N)c3c2=O)c2scc(C(=O)O)c2n1 (stereo not shown) [compound 708]")
87.8
>>> result("N#Cc1cccc2c1c(=O)n(CCOc1ccc(Cl)cc1-c1ccnc3c(C(=O)O)csc13)c1ccccc21 [compound 657]")
45.7
>>> result("Cc1c(C(F)(F)F)cc2nc(C)n(CC#Cc3ccc(Cl)cc3-c3cn(C)c(=O)c4c(C(=O)O)csc34)c(=O)c2c1C#N [compound 754]")
17.2
>>> result("Cc1nc2cnc(N(C)C3CCN(CC(=O)C(C)C)CC3)c(C#N)c2c(=O)n1CCOc1ccc(Cl)cc1-c1ccnc2c(C(=O)O)csc12 [compound 1127]")
12.9

Source listed as patent US11286268B1.
